Reported pIC50 is given for each of the following molecules.
System: NCI-H1299
test.summary: Cytotoxicity against human NCI-H1299 cells assessed as cell viability after 24 hrs by MTT assay
Type: functional, cell-based
measurement.conditions: NCI-H1299, 24 h
pIC50: −log10 of the molar value.
metric: pIC50

- C=C1[C@@H]2CC[C@H]3[C@]4(C)CCCC(C)(C)[C@H]4CC[C@]3(C2)[C@@H]1O: < 4.30
- C=C1C[C@]23C[C@H]1CC[C@H]2[C@@]1(C)[C@H](C[C@H]3O)C(C)(C)CC[C@@H]1O: < 4.30
- C=C1C(=O)[C@@]23CC[C@@H]4[C@@](C)(CO)CCC[C@@]4(C)C2=CC[C@@H]1C3: 4.84
- C[C@H]1C(=O)[C@@]23CC[C@@H]4[C@@](C)(C=O)CCC[C@@]4(C)C2=CC[C@]1(O)C3: < 4.30
- C=C1C(O)[C@@]23CC[C@H]4[C@@](C)(CCC[C@@]4(C)C(=O)OCCBr)[C@@H]2CC[C@]1(O)C3 (stereo not given in full): < 4.30
- C=C1[C@@H]2CC[C@@H]3[C@@](CC[C@@H]4C(C)(C)CC[C@H](O)[C@]43C)(C2)[C@H]1O: < 4.30
- C[C@@H]1C(=O)[C@H]2C[C@]1(O)CC1=C2[C@]2(C)CCC[C@](C)(CO)[C@H]2CC1: < 4.30
- C=C1C(O)[C@@]23CC[C@H]4[C@@](C)(CCC[C@@]4(C)C(=O)OCCN4CCN(C)CC4)[C@@H]2CC[C@]1(O)C3 (stereo not given in full): < 4.30
- C=C1C(=O)[C@@]23CC[C@@H]4[C@@](C)(CO)CCC[C@@]4(C)C2=CC[C@]1(O)C3: 4.97
- C[C@@H]1C(=O)[C@H]2C[C@]1(O)CC1=C2[C@]2(C)CCCC(C)(C)[C@H]2CC1: < 4.30
- C=C1[C@@H](O)[C@@]23CC[C@@H]4C(C)(C)CCC[C@@]4(C)[C@@H]2CC[C@@H]1[C@H]3O: < 4.30
- C=C1[C@@H]2CC[C@H]3[C@]4(C)CCC[C@@](C)(CO)[C@H]4CC[C@]3(C2)[C@@H]1O: < 4.30
- C=C1C(=O)[C@@]23CC[C@@H]4[C@](C)(CO)CCC[C@@]4(C)C2=CC[C@]1(O)C3: 4.72
- CC1=C[C@]23C[C@H]1CC[C@H]2[C@@]1(C)[C@H](C[C@H]3O)C(C)(C)CC[C@@H]1O: < 4.30
- C=C1C(=O)[C@@]23CC[C@@H]4[C@@](C)(C=O)CCC[C@@]4(C)C2=CC[C@]1(O)C3: 4.91

---

Tested on: DU-145
test.summary: Cytotoxicity against human DU145 cells assessed as cell viability after 24 hrs by MTT assay
Format: functional, cell-based
measurement.conditions: DU-145, 24 h
pIC50: −log10 of the molar value.
Reported pIC50 is given for each of the following molecules.
metric: pIC50

- C=C1C(=O)[C@H]2C[C@@H]1CC1=C2[C@]2(C)CCC[C@](C)(CO)[C@H]2CC1: < 4.30
- C[C@H]1C(=O)[C@@]23CC[C@@H]4C(C)(C)CCC[C@@]4(C)[C@@H]2[C@@H](O)C[C@@H]1C3: < 4.30
- C=C1C[C@@]23CC[C@H]4[C@@](C)(CCC[C@]4(C)C(=O)O)[C@@H]2CC[C@@H]1C3: < 4.30
- C=C1C(=O)[C@@]23CC[C@@H]4C(C)(C)CCC[C@@]4(C)[C@@H]2[C@@H](O)C[C@@H]1C3: 5.35
- C=C1C(=O)[C@H]2C[C@]1(O)CC1=C2[C@]2(C)CCC[C@](C)(CO)[C@H]2CC1: 5.03
- C[C@@H]1C(=O)[C@@]23CC[C@@H]4C(C)(C)[C@H](O)CC[C@@]4(C)[C@@H]2[C@@H](O)C[C@@H]1C3: < 4.30
- C=C1[C@@H]2CC[C@@H]3[C@@](CC[C@@H]4C(C)(C)CC[C@H](O)[C@]43C)(C2)[C@H]1O: < 4.30
- C=C1C(=O)[C@@]23CC[C@@H]4[C@](C)(CO)CCC[C@@]4(C)C2=CC[C@]1(O)C3: 5.08
- CC1=C[C@]23C[C@H]1CC[C@H]2[C@@]1(C)[C@H](C[C@H]3O)C(C)(C)CC[C@@H]1O: < 4.30
- C[C@@H]1C(=O)[C@H]2C[C@]1(O)CC1=C2[C@]2(C)CCC[C@](C)(C=O)[C@H]2CC1: < 4.30
- C=C1C[C@]23C[C@H]1CC[C@H]2[C@]1(C)CCCC(C)(C)[C@H]1C[C@H]3O: < 4.30
- C[C@H]1C(=O)[C@@]23CC[C@@H]4C(C)(C)CCC[C@@]4(C)C2=CC[C@]1(O)C3: < 4.30
- C=C1C(=O)[C@@]23CC[C@@H]4[C@@](C)(CO)CCC[C@@]4(C)C2=CC[C@]1(O)C3: 5.20
- C=C1C(=O)[C@@]23CC[C@@H]4[C@@](C)(CO)CCC[C@@]4(C)C2=CC[C@@H]1C3: 4.51
- C=C1[C@@H]2CC(=O)[C@H]3[C@]4(C)CCCC(C)(C)[C@H]4[C@@H](O)C[C@]3(C2)[C@@H]1O: < 4.30
